- ASSAY PROCEDURE: Effect on ambient level of L-[3H]glutamate in Wistar rat synaptosomes assessed as L-[3H]glutamate level at 100 uM preincubated for 20 mins (reference value: 24.68 +/- 1.49%)
- Format: ADME, subcellular, Synaptosome
REPORTED PROPERTY: Activity
Lab note: write values as number then unit, every time.

NCC(CC(=O)O)C(F)(F)C(F)F (racemic)
25.29%
NC[C@@H](CC(=O)O)C(F)(F)F
24.75%
CC(C)C[C@H](CN)CC(=O)O
26.2%

Kindly consider the entry below.
Entry NC[C@@](O)(CC(=O)O)C(F)(F)F : reported Activity = ?
22.72%

====

- ASSAY PROCEDURE: Effect on ambient level of [3H]GABA in Wistar rat synaptosomes assessed as [3H]GABA level at 100 uM preincubated for 20 mins in presence of GAT1 specific blocker NO-711 (reference value: 25.07 +/- 2.1%)
- Format: ADME, subcellular, Synaptosome
Listed below: Activity values for each entry.
Lab note: write values as number then unit, every time.

A selection of reference data follows.
CC(C)C[C@H](CN)CC(=O)O
24.34%
NC[C@@](O)(CC(=O)O)C(F)(F)F
27.9%
NCC(CC(=O)O)C(F)(F)C(F)F (racemic)
26.6%

Kindly consider the entry below.
Entry NC[C@@H](CC(=O)O)C(F)(F)F : reported Activity = ?
24.86%
